I'd be grateful if you could share measured inhibition at 22.2 µM for these entries.
TESTED_SYSTEM: Bovine Adrenal Estrogen Sulfotransferase (Bos taurus)
Construct: The enzyme was isolated from the bovine adrenals; from tissue; host or cells: bovine adrenals; purified by ammonium sulfate fractionation and chromatography on DEAE-cellulose or DEAE-Sephadex A-50
ASSAY_INFO: Inhibition of bovine adrenal estrogen sulfotransferase (estrone sulfurylation)
Assay type: biochemical
CONDITION_CONTEXT: pH 8.1; read-out: Fractional Inhibition (Table I)
Procedure: Materials are evaluated for activity as estrogen sulfotransferase inhibitors by the method of Rozhin et al, Journal of Biological Chemistry, 252:7214-7220 (October 25, 1977), herein incorporated by reference. Isolation of Estrogen Sulfotransferase (EC 2.8.2.4). […] Standard Enzyme Assay. […] After drying the sheet, samples were visualized by spraying with methylene blue (25 mg in 100 ml of 0.05 N H2 SO4), punched out with a cork borer, and counted in 10 ml of dioxane counting liquid. […]
Number only, in %; omit the unit.

Q) # inhibition at 22.2 µM lookup, item "CC(=O)Oc1ccc2c(c1)CC[C@@H]1[C@@H]2CC[C@]2(C)[C@@H](O)CC[C@@H]12"
A) 39

Q) Try the molecule "COc1ccc2c(c1)CC[C@@H]1[C@@H]2CC[C@]2(C)[C@@H](O)CC[C@@H]12"
A) 61

Q) Try the molecule "C[C@@]12CCC[C@H]1[C@@H]1CC=C3CCCC[C@]3(C)[C@H]1CC2"
A) 0

Q) Try the molecule "C[C@]12CC[C@@H]3c4ccc(O)cc4CC[C@H]3[C@@H]1CC[C@@H]2O"
A) 68

Q) Try the molecule "C[C@@]12CCC[C@H]1[C@@H]1CCc3cc(O)ccc3[C@H]1CC2"
A) 67

Q) Try the molecule "C[C@@]12CCC[C@H]1[C@@H]1CC=C3C[C@@H](O)CC[C@]3(C)[C@H]1CC2"
A) 31

Q) Try the molecule "C[C@]12CC[C@@H]3c4ccccc4CC[C@H]3[C@@H]1CC[C@@H]2O"
A) 41

Q) Try the molecule C[C@]12CC[C@@H]3c4ccc(O)cc4CC[C@H]3[C@@H]1CCC2=O [3-Hydroxy-1,3,5(10)estratriene-17-one]
A) 65

Q) Try the molecule "C[C@@]12CCC[C@H]1[C@@H]1CCc3ccccc3[C@H]1CC2"
A) 0

---

TESTED_SYSTEM: Bovine Adrenal Estrogen Sulfotransferase (Bos taurus)
Construct: The enzyme was isolated from the bovine adrenals; from tissue; host or cells: bovine adrenals; purified by ammonium sulfate fractionation and chromatography on DEAE-cellulose or DEAE-Sephadex A-50
Sequence (P19217 1-295): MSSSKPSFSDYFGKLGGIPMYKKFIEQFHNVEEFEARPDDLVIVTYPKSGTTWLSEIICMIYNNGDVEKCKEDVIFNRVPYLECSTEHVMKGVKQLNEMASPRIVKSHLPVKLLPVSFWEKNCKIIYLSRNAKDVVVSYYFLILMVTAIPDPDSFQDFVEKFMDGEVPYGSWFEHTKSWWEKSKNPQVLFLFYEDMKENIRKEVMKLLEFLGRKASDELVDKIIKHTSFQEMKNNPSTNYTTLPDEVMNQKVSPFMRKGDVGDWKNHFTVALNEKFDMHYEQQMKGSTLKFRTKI
ASSAY_INFO: Inhibition of bovine adrenal estrogen sulfotransferase (estrone sulfurylation)
Type: biochemical
CONDITION_CONTEXT: inhibitors 1 and 5 to 8; calculated from fractional inhibition; read-out: Ki (Table II), calculated from Equation 4 (competitive inhibition)
PROPERTY: pKi
Schema: pKi number; meaning minus log10 of the concentration expressed in molar units.

Q) # pKi lookup, item "C[C@]12CC[C@@H]3c4cc(Br)c(O)c(Br)c4CC[C@H]3[C@@H]1CC[C@@H]2O"
A) 6.96

Q) Try the compound C[C@]12CC[C@@H]3c4cc(N)c(O)cc4CC[C@H]3[C@@H]1CC[C@@H]2O [2-Amino-1,3,5(10)estratriene-3,17β-diol]
A) 5.46

Q) Try the compound "COc1ccc2c(c1[N+](=O)[O-])CC[C@@H]1[C@@H]2CC[C@]2(C)C(=O)CC[C@@H]12"
A) 5.37

Q) Try the compound C[C@]12CC[C@@H]3c4ccc(O)c(N)c4CC[C@H]3[C@@H]1CC[C@@H]2O [4-Amino-1,3,5(10)estratriene-3,17β-diol]
A) 5.46

---

TESTED_SYSTEM: Bovine Adrenal Estrogen Sulfotransferase (Bos taurus, UniProt P19217)
Construct: The enzyme was isolated from the bovine adrenals; from tissue; host or cells: bovine adrenals; purified by ammonium sulfate fractionation and chromatography on DEAE-cellulose or DEAE-Sephadex A-50
Sequence (P19217 1-295): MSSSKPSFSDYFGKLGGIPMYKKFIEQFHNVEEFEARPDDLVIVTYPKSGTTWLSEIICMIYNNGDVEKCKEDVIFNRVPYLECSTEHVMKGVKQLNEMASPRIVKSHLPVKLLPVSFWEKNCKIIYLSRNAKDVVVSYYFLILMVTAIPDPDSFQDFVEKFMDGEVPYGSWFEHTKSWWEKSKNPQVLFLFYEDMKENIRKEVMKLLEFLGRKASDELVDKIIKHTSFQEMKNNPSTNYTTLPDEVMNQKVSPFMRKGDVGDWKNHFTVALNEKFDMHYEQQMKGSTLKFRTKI
ASSAY_INFO: Inhibition of bovine adrenal estrogen sulfotransferase (estrone sulfurylation)
Assay type: biochemical
CONDITION_CONTEXT: inhibitors 10, 11 and 13 to 15; Equation 5 (noncompetitive); read-out: Ki (Table I), calculated from fractional inhibition (noncompetitive inhibition)
PROPERTY: Ki (µM)
Number only, in µM; omit the unit.

Q) # Ki lookup, item "C[C@@]12CCC[C@H]1[C@@H]1CC=C3C[C@@H](O)CC[C@]3(C)[C@H]1CC2"
A) 50

---

TESTED_SYSTEM: Bovine Adrenal Estrogen Sulfotransferase (Bos taurus)
Construct: The enzyme was isolated from the bovine adrenals; from tissue; host or cells: bovine adrenals; purified by ammonium sulfate fractionation and chromatography on DEAE-cellulose or DEAE-Sephadex A-50
ASSAY_INFO: Inhibition of bovine adrenal estrogen sulfotransferase (estrone sulfurylation)
Format: biochemical
CONDITION_CONTEXT: pH 8.1; read-out: Fractional Inhibition (Table II)
PROPERTY: inhibition at 22.2 µM (%)
Number only, in %; omit the unit.

Q) # inhibition at 22.2 µM lookup, item "C[C@]12CC[C@@H]3c4cc([N+](=O)[O-])c(O)cc4CC[C@H]3[C@@H]1CC[C@@H]2O"
A) 80

Q) Try the compound "C[C@]12CC[C@@H]3c4cc(N)c(O)cc4CC[C@H]3[C@@H]1CC[C@@H]2O"
A) 76

Q) Try the compound "C[C@]12CC[C@@H]3c4ccc(O)cc4CC[C@H]3[C@@H]1C[C@@H](O)C2"
A) 89

Q) Try the compound "C[C@]12CC[C@@H]3c4ccc(O)c(N)c4CC[C@H]3[C@@H]1CC[C@@H]2O"
A) 76

Q) Try the compound "COc1ccc2c(c1[N+](=O)[O-])CC[C@@H]1[C@@H]2CC[C@]2(C)C(=O)CC[C@@H]12"
A) 72

Q) Try the compound "C[C@]12CC[C@@H]3c4cc(Br)c(O)c(Br)c4CC[C@H]3[C@@H]1CC[C@@H]2O"
A) 99

Q) Try the compound "C[C@]12CC[C@@H]3c4ccc(O)c([N+](=O)[O-])c4CC[C@H]3[C@@H]1CC[C@@H]2O"
A) 98

---

TESTED_SYSTEM: Bovine Adrenal Estrogen Sulfotransferase (Bos taurus)
Construct: The enzyme was isolated from the bovine adrenals; from tissue; host or cells: bovine adrenals; purified by ammonium sulfate fractionation and chromatography on DEAE-cellulose or DEAE-Sephadex A-50
ASSAY_INFO: Inhibition of bovine adrenal estrogen sulfotransferase (estrone sulfurylation)
Type: biochemical
CONDITION_CONTEXT: inhibitors 2 to 4 and 9 to 12; from kinetic experiments; read-out: Ki (Table II), not among those calculated
PROPERTY: pKi
Schema: pKi number; meaning minus log10 of the concentration expressed in molar units.

Q) Short answer please: pKi, Bovine Adrenal Estrogen Sulfotransferase (Bos taurus), entry "C[C@]12CC[C@@H]3c4cc([N+](=O)[O-])c(O)cc4CC[C@H]3[C@@H]1CC[C@@H]2O"
A) 5.62

Q) Try the compound "C[C@]12CC[C@@H]3c4ccc(O)c([N+](=O)[O-])c4CC[C@H]3[C@@H]1CC[C@@H]2O"
A) 6.82

Q) Try the compound "C[C@]12CC[C@@H]3c4ccc(O)cc4CC[C@H]3[C@@H]1C[C@@H](O)C2"
A) 5.89

---

TESTED_SYSTEM: Bovine Adrenal Estrogen Sulfotransferase (Bos taurus)
Construct: The enzyme was isolated from the bovine adrenals; from tissue; host or cells: bovine adrenals; purified by ammonium sulfate fractionation and chromatography on DEAE-cellulose or DEAE-Sephadex A-50
Sequence (P19217 1-295): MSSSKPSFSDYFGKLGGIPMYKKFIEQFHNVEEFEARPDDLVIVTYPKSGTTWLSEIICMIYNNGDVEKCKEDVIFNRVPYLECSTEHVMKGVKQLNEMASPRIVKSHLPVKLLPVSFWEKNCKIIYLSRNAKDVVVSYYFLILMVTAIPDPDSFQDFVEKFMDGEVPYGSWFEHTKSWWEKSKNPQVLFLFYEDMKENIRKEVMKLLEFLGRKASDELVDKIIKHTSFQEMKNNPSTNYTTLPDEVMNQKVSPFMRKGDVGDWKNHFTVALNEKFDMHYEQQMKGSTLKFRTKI
ASSAY_INFO: Inhibition of bovine adrenal estrogen sulfotransferase (estrone sulfurylation)
Format: biochemical
pKi: −log10 of the molar value.
Could you label it met if measured pKi is 4 or higher, and not met otherwise?

Q) Decide: is the reported value of pKi for C[C@]12CCC(=O)C[C@H]1CC[C@@H]1[C@@H]2CC[C@]2(C)[C@@H](O)CC[C@@H]12 [17β-Hydroxy-5β-androstane-3-one] equal to or greater than 4?
A) met

Q) Try the compound "C[C@]12CC[C@@H]3c4ccc(O)cc4CC[C@H]3[C@@H]1C[C@@H](O)[C@@H]2O"
A) met

Q) Try the compound C[C@]12CCC(=O)C[C@@H]1CC[C@@H]1[C@@H]2CC[C@]2(C)[C@@H](O)CC[C@@H]12 [17β-Hydroxy-5α-androstane-3-one]
A) met

Q) Try the compound "C[C@]12CC[C@@H]3c4ccc(O)cc4C(=O)C[C@H]3[C@@H]1CC[C@@H]2O"
A) met

Q) Try the compound C[C@]12CC[C@H](O)C[C@H]1CC[C@@H]1[C@@H]2CC[C@]2(C)C(=O)CC[C@@H]12 [3β-Hydroxy-5β-androstane-17-one]
A) not met

Q) Try the compound "C[C@]12CC[C@H](O)C[C@@H]1CC[C@@H]1[C@@H]2CC[C@]2(C)[C@@H](O)CC[C@@H]12"
A) met

Q) Try the compound C[C@]12CC[C@H](O)CC1=CC[C@@H]1[C@@H]2CC[C@]2(C)C(=O)CC[C@@H]12 [3β-Hydroxy-5-androstene-17-one]
A) not met

Q) Try the compound C[C@]12CC[C@@H]3c4ccc(O)cc4CC[C@H]3[C@@H]1CCC2=O [3-Hydroxy-1,3,5(10)estratriene-17-one]
A) met

Q) Try the compound "C[C@]12CC[C@@H]3c4cc([N+](=O)[O-])c(O)c([N+](=O)[O-])c4CC[C@H]3[C@@H]1CC[C@@H]2O"
A) met

Q) Try the compound "C[C@]12CC[C@@H]3c4ccc(O)cc4CC[C@H]3[C@@H]1C[C@H](O)[C@@H]2O"
A) met

Q) Try the compound "C[C@]12CC[C@H]3[C@@H](CC=C4C[C@@H](O)CC[C@@]43C)[C@@H]1CC[C@@H]2O"
A) met
